Readings of pKi for the listed compounds
# system-name: R232-STING (Homo sapiens, UniProt Q86WV6, H232R)
# Sequence (Q86WV6 155-341 H232R): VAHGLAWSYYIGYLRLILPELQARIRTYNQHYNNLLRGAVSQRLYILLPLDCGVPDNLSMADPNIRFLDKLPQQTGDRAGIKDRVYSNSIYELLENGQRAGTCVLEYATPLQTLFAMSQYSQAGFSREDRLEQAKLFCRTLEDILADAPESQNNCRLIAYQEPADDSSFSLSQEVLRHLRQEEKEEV
# assay-notes: biochemical
pKi: −log10 of the molar value.

CCn1nc(C)cc1-c1nc(C(=O)O)c(-c2nc(C(N)=O)cc3c2cnn3C)o1: < 6.00

Field: next compound
Name the reported pKi value associated with the compound CCn1nc(C)cc1-c1nnc(-c2cc(C(N)=O)cc3c2cnn3CC[C@H]2CCCCN2C)[nH]1 (racemic)
< 6.00

====

# system-name: STING (Homo sapiens, UniProt Q86WV6, G230A/H232R/R293Q/R71H)
# Construct: host or cells: THP-1 and THP-1 Lucia ISG cells
# Sequence (Q86WV6 whole entry R71H/G230A/H232R/R293Q): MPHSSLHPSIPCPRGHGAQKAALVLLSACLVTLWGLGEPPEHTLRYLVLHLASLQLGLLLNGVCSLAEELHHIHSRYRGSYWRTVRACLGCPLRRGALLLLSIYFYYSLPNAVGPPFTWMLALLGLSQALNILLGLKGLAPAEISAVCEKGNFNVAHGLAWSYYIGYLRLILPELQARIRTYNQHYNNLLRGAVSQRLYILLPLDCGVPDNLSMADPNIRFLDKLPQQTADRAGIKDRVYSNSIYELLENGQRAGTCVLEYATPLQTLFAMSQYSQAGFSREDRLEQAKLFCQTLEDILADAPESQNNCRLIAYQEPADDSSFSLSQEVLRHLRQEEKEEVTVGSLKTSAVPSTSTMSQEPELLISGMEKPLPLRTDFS
# assay-notes: Interferon-β induction: THP-1 Lucia ISG reporter cell line
# Format: cell-based
# test-settings: THP-1 Lucia ISG cells, 24 hours incubation, luciferase reporter; read-out: THP-1 Lucia ISG Cells IFN-β EC50
readout-name: pEC50
# pEC50: negative log10 of molar concentration; output just the value

Please review the following examples before continuing.
CCn1nc(C)c(F)c1-c1nc(-c2cc(C(N)=O)cn3c(C)ncc23)n[nH]1: 6.17
CCn1cc(C)c(O)c1-c1nc(-c2nc(C(N)=O)cc3c2cnn3C)cs1: 6.47
Cc1cc(-c2n[nH]c(-c3nc(C(N)=O)cc4c3cnn4C)n2)n(CCCO)n1: 7.30
Cc1nn(CCCO)c(-c2nc(-c3nc(C(N)=O)cc4c3cnn4C)c(CN)o2)c1O: 5.60

So what pEC50 did Cc1cc(-c2nc(-c3nc(C(N)=O)cc4c3cnn4C)n(C)n2)n(CCCO)n1 get with STING (Homo sapiens, UniProt Q86WV6, G230A/H232R/R293Q/R71H)?
7.10

So what pEC50 did CCn1nc(C)c(O)c1-c1nc(-c2nc(C(N)=O)cc3c2cnn3C)co1 get with STING (Homo sapiens, UniProt Q86WV6, G230A/H232R/R293Q/R71H)?
6.80

So what pEC50 did CCn1nc(C)cc1-c1nc(-c2nc(C(N)=O)cc3c2cnn3C)c(CN)o1 get with STING (Homo sapiens, UniProt Q86WV6, G230A/H232R/R293Q/R71H)?
5.84

So what pEC50 did CCn1nc(C)c(F)c1-c1n[nH]c(-c2nc(C(N)=O)cc3c2cnn3C)n1 get with STING (Homo sapiens, UniProt Q86WV6, G230A/H232R/R293Q/R71H)?
6.89
